Molecular target: cIAP1-BIR3 (Homo sapiens (Human))
Sequence (Q13490 253-363): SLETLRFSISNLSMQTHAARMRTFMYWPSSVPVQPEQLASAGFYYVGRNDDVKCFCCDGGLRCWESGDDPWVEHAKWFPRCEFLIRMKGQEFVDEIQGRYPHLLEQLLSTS
Test: BIR binding assay (FRET competition), cIAP1 BIR3
Conditions: fold separation (FS) for cIAP1
metric: cIAP1 BIR3 vs BIR2 separation window

entry_smiles=C[C@@H]1CN(CC(=O)N2CC(C)(C)c3[nH]c(=O)c(Cc4ccc(F)cc4C#N)cc32)[C@@H](CN2CCO[C@H](C(=O)NCc3ccc(CNC(=O)[C@@H]4CN(C[C@H]5CN[C@H](C)CN5CC(=O)N5CC(C)(C)c6[nH]c(=O)c(Cc7ccc(F)cc7C#N)cc65)CCO4)cc3)C2)CN1 metric="cIAP1 BIR3 vs BIR2 separation window" endpoint_value="++ (1,000>FS>100)"
entry_smiles=C[C@@H]1CN(CC(=O)N2CC(C)(C)c3[nH]c(=O)c(Cc4ccc(F)cc4)cc32)[C@@H](CN2CCO[C@H](C(=O)N(C)CC3CCN(C(=O)[C@@H]4CN(C[C@H]5CN[C@H](C)CN5CC(=O)N5CC(C)(C)c6[nH]c(=O)c(Cc7ccc(F)cc7)cc65)CCO4)CC3)C2)CN1 metric="cIAP1 BIR3 vs BIR2 separation window" endpoint_value="+++ (10,000>FS>1,000)"
entry_smiles=C[C@@H]1CN(CC(=O)N2CC(C)(C)c3[nH]c(=O)c(Cc4ccc(Br)cc4)cc32)[C@@H](CN2CCO[C@H](C(=O)NCc3ccc(CNC(=O)[C@@H]4CN(C[C@H]5CN[C@H](C)CN5CC(=O)N5CC(C)(C)c6[nH]c(=O)c(Cc7ccc(Br)cc7)cc65)CCO4)cc3)C2)CN1 metric="cIAP1 BIR3 vs BIR2 separation window" endpoint_value="++ (1,000>FS>100)"
entry_smiles=C[C@@H]1CN(CC(=O)N2CC(C)(C)c3[nH]c(=O)c(Cc4ccc(F)cc4F)cc32)[C@@H](CN2CCO[C@H](COc3cccc(OC[C@@H]4CN(C[C@H]5CN[C@H](C)CN5CC(=O)N5CC(C)(C)c6[nH]c(=O)c(Cc7ccc(F)cc7F)cc65)CCO4)c3)C2)CN1 metric="cIAP1 BIR3 vs BIR2 separation window" endpoint_value="+++ (10,000>FS>1,000)"
entry_smiles=C[C@@H]1CN(CC(=O)N2CC(C)(C)c3[nH]c(=O)c(Cc4ccc(F)cc4F)cc32)[C@@H](CN2CCO[C@H](C(=O)NCc3ccc(CNC(=O)[C@@H]4CN(C[C@H]5CN[C@H](C)CN5CC(=O)N5CC(C)(C)c6[nH]c(=O)c(Cc7ccc(F)cc7F)cc65)CCO4)cc3)C2)CN1 metric="cIAP1 BIR3 vs BIR2 separation window" endpoint_value="+++ (10,000>FS>1,000)"
entry_smiles=C[C@@H]1CN(CC(=O)N2CC(C)(C)c3[nH]c(=O)c(Cc4ccc(Cl)cc4C(F)(F)F)cc32)[C@@H](CN2CCO[C@H](C(=O)NCc3ccc(CNC(=O)[C@@H]4CN(C[C@H]5CN[C@H](C)CN5CC(=O)N5CC(C)(C)c6[nH]c(=O)c(Cc7ccc(Cl)cc7C(F)(F)F)cc65)CCO4)cc3)C2)CN1 metric="cIAP1 BIR3 vs BIR2 separation window" endpoint_value="+++ (10,000>FS>1,000)"
entry_smiles=C[C@@H]1CN(CC(=O)N2CC(C)(C)c3[nH]c(=O)c(Cc4ccc(F)cc4)cc32)[C@@H](CN2CCC(CN(C)Cc3ccc(CN(C)CC4CCN(C[C@H]5CN[C@H](C)CN5CC(=O)N5CC(C)(C)c6[nH]c(=O)c(Cc7ccc(F)cc7)cc65)CC4)cc3)CC2)CN1 metric="cIAP1 BIR3 vs BIR2 separation window" endpoint_value="+++ (10,000>FS>1,000)"
